Assay: Pulse voltammetry (SWV/DPV), three-electrode cell: redox potential of first reduction
Type: physicochemical
Conditions: Table 2; Ag/AgCl reference, +0.200 V offset applied; glassy carbon working electrode
Outcome measure: Redox Potential (V vs SHE)
Note: unit V vs SHE is implicit; provide only the numeric part.

Structure notation: COc1cc[n+]2c3c1CC[n+]1ccc(OC)c(c1-3)CC2.[Cl-].[Cl-]
Value units: V vs SHE
Data value: −0.80

Asked: So what does the record say about Redox Potential (V vs SHE) for CCOc1cc2c3[n+](c1)CCc1cc(OCC)c[n+](c1-3)CC2.Cl ?
Given back: −0.80

Asked: What do you get for Cc1cc2c3[n+](c1)CCc1cc(C)c[n+](c1-3)CC2.[Cl-].[Cl-] ?
Given back: −0.59

Asked: What do you get for [Cl-].[Cl-].c1cc2c3[n+](c1)CCCc1ccc[n+](c1-3)CCC2 ?
Given back: −0.64

Asked: What do you get for [Cl-].[Cl-].c1cc2c3[n+](c1)CCc1ccc[n+](c1-3)CC2 ?
Given back: −0.48
